- Target: CBL-B protein (Homo sapiens, UniProt Q13191)
- Sequence (Q13191 whole entry): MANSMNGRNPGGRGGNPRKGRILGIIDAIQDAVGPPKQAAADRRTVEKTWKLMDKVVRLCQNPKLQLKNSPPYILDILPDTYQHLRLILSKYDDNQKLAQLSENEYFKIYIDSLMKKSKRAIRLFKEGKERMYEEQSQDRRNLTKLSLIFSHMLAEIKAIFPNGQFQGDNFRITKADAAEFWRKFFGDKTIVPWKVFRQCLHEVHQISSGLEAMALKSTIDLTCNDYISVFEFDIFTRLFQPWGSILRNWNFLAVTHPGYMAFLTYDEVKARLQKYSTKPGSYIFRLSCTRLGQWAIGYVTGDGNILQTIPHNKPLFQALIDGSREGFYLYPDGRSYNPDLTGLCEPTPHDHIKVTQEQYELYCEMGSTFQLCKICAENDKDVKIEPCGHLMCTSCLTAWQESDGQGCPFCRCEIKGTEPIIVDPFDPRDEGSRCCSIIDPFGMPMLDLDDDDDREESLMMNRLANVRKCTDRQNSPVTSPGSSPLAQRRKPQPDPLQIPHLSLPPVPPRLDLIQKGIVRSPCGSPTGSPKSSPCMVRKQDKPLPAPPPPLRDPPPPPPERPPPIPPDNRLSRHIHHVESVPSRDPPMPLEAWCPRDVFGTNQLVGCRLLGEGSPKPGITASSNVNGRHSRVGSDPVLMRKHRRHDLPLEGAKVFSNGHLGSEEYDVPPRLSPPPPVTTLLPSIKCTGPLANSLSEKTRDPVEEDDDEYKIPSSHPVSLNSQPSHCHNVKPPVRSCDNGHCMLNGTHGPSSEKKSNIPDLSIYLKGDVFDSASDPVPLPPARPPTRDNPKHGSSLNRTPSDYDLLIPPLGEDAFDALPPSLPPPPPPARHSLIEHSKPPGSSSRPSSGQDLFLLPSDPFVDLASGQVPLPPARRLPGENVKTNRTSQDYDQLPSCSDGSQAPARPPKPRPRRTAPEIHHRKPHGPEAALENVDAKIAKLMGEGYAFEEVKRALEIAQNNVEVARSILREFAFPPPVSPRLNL
- Measurement description: CBL-B binding experiment (Streptavidin-Tb cryptate / Ligand L1 displacement)
- Experimental parameters: 8 nM CBL-B protein, 25° C., 60 minutes; Ki=Relative IC50/2
Measured attribute: Ki

[ask] // lookup Ki | system=CBL-B protein (Homo sapiens, UniProt Q13191) | key= Cn1cnnc1C1(c2cccc(-n3cc(C(F)(F)F)c4cc(CN5CCC[C@](C)(O)C5)[nH]c4c3=O)c2)CCC1 [Compound T064]
[reply] < 50 nM

[ask] // lookup Ki | system=CBL-B protein (Homo sapiens, UniProt Q13191) | key= CO[C@H]1CCN(Cc2cc3c(C(F)(F)F)cn(-c4cccc(C5(c6nncn6C)CCC5)c4)c(=O)c3[nH]2)C[C@H]1F [Compound T108]
[reply] < 50 nM

[ask] // lookup Ki | system=CBL-B protein (Homo sapiens, UniProt Q13191) | key= C[C@H]1CCCN(Cc2cc3c(C4CC4)cn(-c4cccc([C@H](c5nncn5C)C5CCC5)c4)c(=O)c3[nH]2)C1 [Compound T012]
[reply] < 50 nM
